Assay: label from the status in PepcDB records;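 also: failed if final PepcDB status was selected cloned or expressed and not failed if soluble or beyond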
READOUT_LABEL: protein production

Examples from the recorded data:
MNKFKLGSDFDHLVNSLSDVELLNLFIQSCSQTTINGVPVPRFPPEEIQKQFVGASYEHALYEAYLFYRHIKEYAQNLGVPLNKESKVLDFGCGWGRIIRFLFKDASDQNLLGIDVDPAMITLCNETLGRGIYKTASPHPPVEFISDNSLDIIFAYSVFSHLSEATAENWVKEFSRVLRPGGIFIATTQARYFLDFCQQFQEHPELIQTGWHKTLSQAFPDIHRAISDYENGKFVHSPTGAGDVRNSSFYGETVIPRTYIENHYEKYLKLQDFFDDVNRLPQALFVLQKILEHHHHHH :: not failed
MQELLFIRLNELILLIYLFSIACYFFDFIKRFYKIRNIGFVTLGIVWVLQTISLSFYVTATNQVPLGNVFDVLFALAWLIISISIVISVIKQVNISIFLFNIIGFVFIAISTFQPMHYQGAGEKLNVINELLIVHVTFAIISYAIFAFAFVNSILYLIQFKNLKQKRFTQKYFRISSVATLEKVVFYNSLVGFLFIILSIILGAQWGINTIGMDIFVDPKVIMSVIITILYGLYLLLRVRQSISKHKLIYINIILFCLNMINLLFTSHVSDFHQWTGI :: failed
MLEQILLGTYTRRASQGIYKIALDTTQGRLTEATLLLEETSPTYLALSQKGELFSVTSVDGEGGTAAYQPEMDHFNLLNKVTEEGAPPCYVAVDENRQLVYAANYHQGIVHVYRILEDGSLEDADKVIHTEPTGPHENQNNAHVHYTDLTPDQRLVVCDLGTDRVYTYNVSLDGKLSEIAQFVTEPGTGPRHLVFHPTKSLAYLFGELDSTVSVLSYDETDGSFTELQKVSTLPADYDAFNGGAAIRISSDGRFLYASNRGHNSIAVYAVSENGEAIERIQLISTEGDIPRDFDLDPSEDFIVVANQDSDNLTLYRRNQETGLLEMIQKDVAVPECVCVLFVLEHHHHHH :: not failed
MLTPRFDIQPAVSVILPTFDRAPLLASAIESVVAQNFAEWELIVVDDGSSDETFEIVDGYLNQHANIRYMKHRNRKAALSRNAGIQAAFGRYITFLDSDDLYLPEHLESRLHLLESMPEVRLISGGFVCEGDPWVRDRDDPEKLIHVSECIAGATMFGRRELFLDIGGFRALDYAEDTDLWERAARSHKVLKIDQPVSYIYRRSPGSITRTYKPAKPLEHHHHHH :: not failed
MGLFELNLAIILFIIGNFIGLEYSYRKYSSPYVEKGIDKFALAISVFGGILINSPLYMLGCLLIGFPLGMRPGYGRVEFVVGLAVALFLYFLRW :: failed

Per the record, ASLLARYPPEKLFQAERNFNAAQDLDVSLLEGDLVGVIKKKDPMGSQNRWLIDNGVTKGFVYSSFLKPYNPRRSHSDAS has protein production of not failed

# protein production (sequence: MNNLFAAPTPEEHAALLQEIGPLPLSGQAWPDWVRILAWIVLAVIGVQIVTTAIGLPPGQVNPVLAGTIILCFLGLALVSWHMQISVTRIDESGLRQTWITRREVAWQDIQFAKFVPLLFSKRLVVFTRHGRPIVFQGGTRDLQVAFAKISLLYRRKR ) is failed

* * *

Assay: label from the status in PepcDB records
READOUT_LABEL: protein production

Illustrative cases are given below, each with its answer.
MAFSVAYDLIPNKLIKDIDEMNQWLHDKINRAVYLVGFATQQSDYEYKLYELFKALDELEERLKKQLFLFGNQLTESDLYLLATLERFDNIYFCLFKCSLKRIADYPALFRYHNQLRGMESLASTYQPVLTKEHYFMSTMHVLGLEHHHHHH :: failed
MTGRIVHFEIPFDDGDRARAFYRDAFGWAIAEIPDMDYSMVTTGPVGESGMPDEPGYINGGMMQRGEVTTPVVTVDVESIESALERIESLGGKTVTGRTPVGNMGFAAYFTDSEGNVVGLWETAR :: not failed
MAAAAAAAAAAGAAGGRGSGPGRRRHLVPGAGGEAGEGAPGGAGDYGNGLESEELEPEELLLEPEPEPEPEEEPPRPRAPPGAPGPGPGSGAPGSQEEEEEPGLVEGDPGDGAIEDPELEAIKARVREMEEEAEKLKELQNEVEKQMNMSPPPGNAGPVIMSIEEKMEADARSIYVGNVDYGATAEELEAHFHGCGSVNRVTILCDKFSGHPKGFAYIEFSDKESVRTSLALDESLFRGRQIKVIPKRTNRPGISTTDRGFPRARYRARTTNYNSSRSRFYSGFNSRPRGRVYRGRARATSWYSPY :: failed
MSERVKVAILGSGNIGTDLMYKLLKNPGHMELVAVVGIDPKSEGLARARALGLEASHEGIAYILERPEIKIVFDATSAKAHVRHAKLLREAGKIAIDLTPAARGPYVVPPVNLKEHLDKDNVNLITCGGQATIPLVYAVHRVAPVLYAEMVSTVASRSAGPGTRQNIDEFTFTTARGLEAIGGAKKGKAIIILNPAEPPILMTNTVRCIPEDEGFDREAVVASVRAMEREVQAYVPGYRLKADPVFERLPTPWGERTVVSMLLEVEGAGDYLPKYAGNLDIMTASARRVGEVFAQHLLGKPVEEVVA :: not failed
RRLPTVLLKLRMAQHLQAAVAFVEQGHVRVGPDVVTDPAFLVTRSMEDFVTWVDSSKI :: not failed

Summary for this sequence, MTIAVDFDGTIVEHRYPRIGEEIPFAVETLKLLQQEKHRLILWSVREGELLDEAIEWCRARGLEFYAANKDYPEEERDHQGFSRKLKADLFIDDRNVGGIPDWGIIYEMIKEKKTFADIYSQQREENTSQKKKRKWLPF : protein production is not failed

So, MSFSADALEGGLSSLKLAADKYRSILNDEKTGNIRWRYGGPPIFDTVNKLFEEERTHVQWRYDNPPDFNSVNQLFEEGQTKVWPEGSLEETVQNAIKSWEMEFSHKIRLQDFKTINPEKFKLFVNGREGLSAEETLRLGSYNALLKNSLPEEFQYYKPEEESFESSHDAFRSALPRGFAWEILSVYSGPPVIAFKFRHWGYFEGTFKGHAPTGEMVQFLGLGVLKVDESLRAEEIEIYYDPGELFGGLLKGPPISETKTTDSGDNTAEKQSCPFTH ? Its protein production was failed

* * *

Test: label from the status in PepcDB records
READOUT_LABEL: protein production

# example entries with known answers
NRWITRPKFTHFDLHTLNWDLCLTQANHKSGLALDMLRMLLDSLPQTVSAIEAALSQNDQVTMLSTIHKLHGASCYCGVPTTQRLCQEIESALKREARVEDLEPEILELLDELTKVESAAKQVLSQLSAEITDDQKNGLL :: failed
MSKKINELLRYCEENYIERGSLELALRCAVSICKANPDAPQAYAHVAAYRILLTAANYRTVTGEPDWYAVLGINKRGSSKSVVNAIDRRCEEIIEVLDGETGVSKAVSRVYDLVRLGVSELMDEDRRRAYDLRSGFSIIN :: failed
MDVSLPCIKIQVQTRYIEEQSNPEYQRFVFAYLITIKNLSSQTVQLMSRRWLITDADGKQTVVEGDGVVGEQPRIKANDEYTYSSGTALDTPVGVMQGQYLMIDEQGESFTVEIEPFRLAVPHVLN :: not failed
SFEIGCELEAQRELRAKQTLVGQVIDEDLMSIVYQPVWDIEAMQPLGFECLARFSPLPLRSPDKWFADAAEVGMGVELELHAIRKALQAIGRFPAPIDLSVNASAATILGGDLARLFDGVPLDRLIVEITEHSSVGNYDAILDVLRPLRQRGLRLAVDDAGAGYSSLHHILNMQPDFIKLDIGLTQNIDLDPARKALARALVGFARDTGSRIVAEGVERQSELDALRSIGVKKVQGYLLGRP :: failed
MYTYSLLNLSHCRRQTRKKRKTDHTEGFLMEETKPKTVEDVETVDVYTAKGFLSTGHRYLDVRTNEEFAKSHVEEALNIPYMFKTDEGRVINPDFLSQVASVCKKDEHLIVACNAGGRGSRACVDLLNEGYDHVANMGGGYSAWVDAGFAGDKPPEDLKIACKFRPKEN :: failed

# protein production of TPAVVERADADSQYEILVGGQRAGLTAYRDLGAQRVFFHTEIDEAFAGQGLASQLVQQALVDVRASGMRIVPVCPYVAKFLKRHDEFADITDPVTPEVLRW = not failed

Entry under test: MGHHHHHHSHMVASWELRVEGRLLEDSALSKYDATKQKRKFSSFFKSLVIELDKDLYGPDNHLVEWHRTATTQETDGFQVKRPGDVNVRCTVLLMLDYQPPQFKLDPRLARLLGIHTQTRPVIIQALWQYIKTHKLQDPHEREFVI . Its protein production was failed

# protein production (sequence: RETYPDAVKICNICHSLLIQGQSCETCGIRMHLPCVAKYFQSNAEPRCPHCNDYWPHEIPK ) is not failed

The sequence listed as MKKILVLGGAHIDRRGMIETETAPGASNPGSWMEEAGGGGFNAARNLSRLGFEVRIIAPRGGDVTGEVVAEAARQAGVEDTPFTFLDRRTPSYTAILERDGNLVIALADMDLYKLFTPRRLKVRAVREAIIASDFLLCDANLPEDTLTALGLIARACEKPLAAIAISPAKAVKLKAALGDIDILFMNEAEARALTGETAENVRDWPNILRKAGLSGGVVTRGASEVVAFNGTEKAILHPPLIREVKDVTGAGDAMASGYLAAIAEGKTIREALRQGAAAAAITVQSSFATSQDLSKDSVEAMLGLVPQAEMLA has a reported protein production of not failed

The reported protein production of the sequence MAESPRRETLIGGAVVLLGVALLAATSINRHDASGQAGAYQVEAVFNRTDGIGIGSPVRLAGIPIGRIVGHKLDPEYRAIVTMRLDLPNELPDDTAAKIQTDGLLGSKYIELVSLGGGYGTIAPGGRLDYSQDSVIVEDLLVKIVAMAKIKRGLDPDIPAAEQQKAKAASHPQAPPPGGAGDPGDPFGGGAVAPPEVNPFAPGPFEDDPPPPEPGVFSPDPGRDGVSEPPPAQDTRHDMRTNTLNDTAGTAPGAVTLASLPAVQADVEEGR was failed

// recorded protein production for MAKILEGPAMKLFNKWGIPVPNYVVIMDPERLAQLGEANKWLRESKLVVKAHEAIGGRFKLGLVKLGLNLEEALEASREMIGRKIGTAVVRQVIVAEMLEHDEEYYVSIAGNRDGAELLLSTKGGVDIEDNWDTVKRLFIPMDETPSVERLTEVAAEAGFTGEVAERVAKIAARLILCFDNEDAQSIEINPLVIRKSDMRFAALDAVMNVDYDARFRHADWDFKPVSEIGRPYTEAEQQIMEIDARIKGSVKFVEVPGGEIALLTAGGGASVFYSDAVVARGGTIANYAEYSGDPPDWAVEALTETICRLPKIRHIIVGGAIANFTDVKATFSGIINGLRESRSKGYLQNVTIWVRRGGPNENQGLAAIRKLQDEGFDIHVYDRSMPMTDIVDLAMNS : failed

Form: sequence = MSLKVHHIGYAVKNIDSALKKFKRLGYVEESEVVRDEVRKVYIQFVINGGYRVELVAPDGEDSPINKTIKKGSTPYHICYEVEDIQKSIEEMSQIGYTLFKKAEIAPAIDNRKVAFLFSTDIGLIELLEKEGHHHHHH ; protein production = not failed

Form: sequence = VTDILREIGMIARALDSISNIEFKELSLTRGQYLYLVRVCENPGIIQEKIAELIKVDRTTAARAIKRLEEQGFIYRQEDASNKKIKRIYATEKGKNVYPIIVRENQHSNQVALQGLSEVEISQLADYLVRMRKNVSEDWEFVKKGNTRNY ; protein production = not failed

Sure, the documented protein production for MDGAQPKTNFFERLIARLAREPDSAEDVLNLLRQAHEQEVFDADTLTRLEKVLDFAELEVRDAMITRSRMNVLKENDSIERITAYVIDTAHSRFPVIGEDKDEVLGILHAKDLLKYMFNPEQFHLKSVLRPAVFVPEGKSLTALLKEFREQRNHMAIVIDEYGGTSGLVTFEDIIEQIVGDIEDEFDEDESADNIHSVSAERWRIHAATEIEDINAFFGTEYGSEEADTIGGLVIQELGHLPVRGEKVLIGGLQFTVARADNRRLHTLMATRVK is failed

The sequence LNKEGEVERLLGINMDMTEVKQLNEALFQEKERLHITLDSIGEAVVCIDMAMKITFMNPVAEKMSGWTQEEALGVPLLTVLHITFGDNGPLMENIYSADTSRSAIEQDVVLHCRSGGSYDVHYSITPLSTLD showed protein production equal to failed

Reference source: a protein production outcome set (Wang et al. 2014)
